# credit: patent US11033535B2

# Assay Summary: Pharmacokinetic evaluation following a single oral and intravenous administration
# Assay type: in vivo, CD1 mouse
# Measurement Conditions: CD1, mouse, plasma, po, 5 mg/kg, Table 5, PO Dose: 5 mg/kg, 4 h, Mouse 6; read-out: Concentration
Readout Kind: concentration at 4 h (ng/mL)
Only the number, expressed in ng/mL, is required.

**Query** Please look up its concentration at 4 h: CNCc1ccc(C[C@H](NC(C)=O)c2nnc(-c3cccc(OC(F)(F)F)c3)s2)cc1 [Compound 42140]
**Result** 123

---

# Assay Summary: Pharmacokinetic evaluation following a single oral and intravenous administration
# Format: in vivo, CD1 mouse
# Measurement Conditions: CD1, mouse, plasma, iv, 1 mg/kg, Table 3, IV Dose: 1 mg/kg, 2 h, Mouse 3; read-out: Concentration
Readout Kind: concentration at 2 h (ng/mL)
Only the number, expressed in ng/mL, is required.

**Query** Please look up its concentration at 2 h: CNCc1ccc(C[C@H](NC(C)=O)c2nnc(-c3cccc(OC(F)(F)F)c3)s2)cc1 [Compound 42140]
**Result** 39.9

---

# Assay Summary: Pharmacokinetic evaluation following a single oral and intravenous administration
# Format: in vivo, CD1 mouse
# Measurement Conditions: CD1, mouse, plasma, po, 5 mg/kg, Table 5, PO Dose: 5 mg/kg, 0.25 h, Mouse 6; read-out: Concentration
# Procedure: A NMP stock solution was prepared by adding 1.136 mL of NMP to 5.68 mg of compound no. 42140 with vortexing and sonification, to obtain a solution with a concentration at 5 mg/mL of 42140:01. Next, to prepare an intravenous formulation, 0.100 mL of the 5 mg/mL stock solution was placed in a new vial. 0.100 mL of NMP and 0.400 mL of PEG400 were added with vortexing and sonification, followed by addition of 0.400 mL of saline with vortexing and sonification. […] 42140:01. […]
Readout Kind: concentration at 0.25 h (ng/mL)
Only the number, expressed in ng/mL, is required.

**Query** Please look up its concentration at 0.25 h: `CNCc1ccc(C[C@H](NC(C)=O)c2nnc(-c3cccc(OC(F)(F)F)c3)s2)cc1`
**Result** 73.1

---

# Assay Summary: Pharmacokinetic evaluation following a single oral and intravenous administration
# Assay type: in vivo, CD1 mouse
# Measurement Conditions: CD1, mouse, plasma, iv, 1 mg/kg, Table 9, IV Dose: 1 mg/kg, 1 h, Mouse 1; read-out: Concentration
Readout Kind: concentration at 1 h

**Query** Please look up its concentration at 1 h: `CC(=O)N[C@@H](Cc1ccc(CN(C)C)cc1)c1nnc(-c2cccc(OC(F)(F)F)c2)s1`
**Result** 41.2 ng/mL

---

# Assay Summary: Pharmacokinetic evaluation following a single oral and intravenous administration
# Assay type: in vivo, CD1 mouse
# Measurement Conditions: CD1, mouse, plasma, po, 5 mg/kg, Table 11, PO Dose: 5 mg/kg, 8 h, Mouse 4; read-out: Concentration
Readout Kind: concentration at 8 h (ng/mL)
Only the number, expressed in ng/mL, is required.

**Query** Please look up its concentration at 8 h: CC(=O)N[C@@H](Cc1ccc(CN(C)C)cc1)c1nnc(-c2cccc(OC(F)(F)F)c2)s1 [Compound 42320]
**Result** 49

---

# Assay Summary: Pharmacokinetic evaluation following a single oral and intravenous administration
# Format: in vivo, CD1 mouse
# Measurement Conditions: CD1, mouse, plasma, po, 5 mg/kg, Table 6, PO Dose: 5 mg/kg, Mouse 6; read-out: Cmax
Readout Kind: Cmax (ng/mL)
Only the number, expressed in ng/mL, is required.

**Query** Please look up its Cmax: `CNCc1ccc(C[C@H](NC(C)=O)c2nnc(-c3cccc(OC(F)(F)F)c3)s2)cc1`
**Result** 175
